// data source = patent EP0044955B1

EXPERIMENT DESCRIPTION: Active ingredient stability in solvents (0,002 molar, HPLC)
Assay type: physicochemical
CONDITION CONTEXT: dimethylformamid (technisch), Dimethylformid (technisch), 80°C, Abbauzeit 37 min; read-out: Wirkstoffgehalt
PARAMETER MEASURED: remaining at 37 min, 2000 µM

[[record]]
line_notation = "CCOC(=O)Nc1cccc(OC(=O)Nc2ccc(F)c(Cl)c2)c1"
parameter_measured = "remaining at 37 min, 2000 µM"
measurement = "32.9%"


---

EXPERIMENT DESCRIPTION: Stability of Phenmedipham in solvents, 24 h storage, HPLC
Format: physicochemical
CONDITION CONTEXT: n,n-diäthyl-3-methyl-benzolcarbonsäureamid, N,N-Diäthyl-3-methyl-benzolcarbonsäureamid (Nr. 11 Tabelle 4), 50°C, 24 Std.; read-out: Restwirkstoff an Phenmedipham Wirkstoffgehalt
PARAMETER MEASURED: remaining at 24 h

[[record]]
molecule = "COC(=O)Nc1cccc(OC(=O)Nc2cccc(C)c2)c1 [Phenmedipham]"
measurement = "95.5%"

